biological target: Estrogen receptor (Homo sapiens) (UniProt P03372); assay: qHTS assay to identify small molecule agonists of the estrogen receptor alpha (ER-alpha) signaling pathway in the presence of an antagonist (AID 1259383); conditions: VM7Luc4E2 cells, ERE-luciferase, +ICI-182,780, 22 h; series mostly up to 92.4 µM; note: nearly all actives have a fitted effect of over 15% in size
Sequence (P03372 whole entry, looked up): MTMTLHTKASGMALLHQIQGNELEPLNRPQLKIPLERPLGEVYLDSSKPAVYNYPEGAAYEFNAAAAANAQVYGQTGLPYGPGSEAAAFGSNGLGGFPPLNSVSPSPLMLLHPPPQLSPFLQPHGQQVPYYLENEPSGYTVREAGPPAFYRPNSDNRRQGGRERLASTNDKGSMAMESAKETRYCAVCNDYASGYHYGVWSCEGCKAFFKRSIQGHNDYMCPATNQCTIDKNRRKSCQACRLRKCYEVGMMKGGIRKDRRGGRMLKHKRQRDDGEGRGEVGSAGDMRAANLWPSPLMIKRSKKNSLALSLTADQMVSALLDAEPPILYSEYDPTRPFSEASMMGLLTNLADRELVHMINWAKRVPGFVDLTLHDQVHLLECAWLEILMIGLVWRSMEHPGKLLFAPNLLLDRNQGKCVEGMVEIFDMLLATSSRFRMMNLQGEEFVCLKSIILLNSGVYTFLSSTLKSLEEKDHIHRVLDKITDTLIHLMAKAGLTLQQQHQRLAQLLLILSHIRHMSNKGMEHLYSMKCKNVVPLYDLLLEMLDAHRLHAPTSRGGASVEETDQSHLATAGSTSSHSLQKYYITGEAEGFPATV
Active and inactive are the calls of the source. Calls come from the whole dose curve.
Labels: class 1 (active), class 0 (inactive)

MOLECULE: O=C(Cl)c1ccccc1F
GROUP: class 0

MOLECULE: Cc1cnc2c(C(=O)O)c(Cl)ccc2c1
GROUP: class 0

MOLECULE: CC(C)N(C(=O)CCl)c1ccccc1
GROUP: class 0

MOLECULE: ClC1=C(Cl)[C@]2(Cl)[C@H]3[C@H]([C@@H]4C=C[C@H]3C4)[C@@]1(Cl)C2(Cl)Cl
GROUP: class 0

MOLECULE: CCOP(=S)(NC(C)C)Oc1ccccc1C(=O)OC(C)C (stereo not given)
GROUP: class 0

MOLECULE: [Cl][Hg][c]1ccccc1
GROUP: class 0

MOLECULE: CN/C(=N\[N+](=O)[O-])NCc1cnc(Cl)s1
GROUP: class 0

MOLECULE: CCNc1nc(NC(C)C(C)C)nc(SC)n1 (stereo not given)
GROUP: class 0

MOLECULE: CC[N+]1(CC)CCC(OC(=O)C(O)(c2ccccc2)c2ccccc2)C1 (stereo not given)
GROUP: class 0

MOLECULE: O=C(CCCCl)c1ccc(F)cc1
GROUP: class 0

MOLECULE: C=C(C)C(=O)[O][Sn]([CH2]CCC)([CH2]CCC)[CH2]CCC
GROUP: class 0

MOLECULE: CSC(C)(C)/C=N/O
GROUP: class 0

MOLECULE: CCC1COC(Cn2cncn2)(c2ccc(Cl)cc2Cl)O1 (stereo not given)
GROUP: class 0

MOLECULE: Nc1ccccc1-c1ccccc1
GROUP: class 0

MOLECULE: N#Cc1c2ccccc2cc2ccccc12
GROUP: class 0

MOLECULE: O=[N+]([O-])c1ccc(CCl)cc1
GROUP: class 0

MOLECULE: CC#C[C@]1(O)CC[C@H]2[C@@H]3C[C@H](C)C4=CC(=O)CC[C@]4(C)[C@H]3CC[C@@]21C
GROUP: class 0

MOLECULE: ClCBr
GROUP: class 0

MOLECULE: CCOC(=O)Cc1ccccc1
GROUP: class 0

MOLECULE: CCCCCCC[CH2][Sn]([Cl])([Cl])[CH2]CCCCCCC
GROUP: class 0

MOLECULE: COP(=O)(OC)Oc1ccc([N+](=O)[O-])cc1
GROUP: class 0

MOLECULE: COc1cnc(OC)n2nc(NS(=O)(=O)c3c(OCC(F)F)cccc3C(F)(F)F)nc12
GROUP: class 0

MOLECULE: CCO/N=C(\CC)C1=C(O)CC(c2c(C)cc(C)cc2C)CC1=O (stereo not given)
GROUP: class 0

MOLECULE: CC1(C)[C@H](/C=C2\CCSC2=O)[C@@H]1C(=O)OCc1coc(Cc2ccccc2)c1
GROUP: class 0

MOLECULE: CC[C@H](C)[C@H]1O[C@]2(C=C[C@@H]1C)C[C@@H]1C[C@@H](C/C=C(\C)[C@@H](O[C@H]3C[C@H](OC)[C@@H](O[C@H]4C[C@H](OC)[C@@H](NC)[C@H](C)O4)[C@H](C)O3)[C@@H](C)/C=C/C=C3\CO[C@@H]4[C@H](O)C(C)=C[C@@H](C(=O)O1)[C@]34O)O2
GROUP: class 0

MOLECULE: ClC(Cl)C(Cl)(Cl)Cl
GROUP: class 0

MOLECULE: NC1CCC(CC2CCC(N)CC2)CC1 (stereo not given)
GROUP: class 0

MOLECULE: Brc1cccc(-c2ccccc2)c1
GROUP: class 0

MOLECULE: COP(=S)(OC)Oc1nc(Cl)c(Cl)cc1Cl
GROUP: class 0

MOLECULE: c1ccc(N=NNc2ccccc2)cc1
GROUP: class 0

MOLECULE: CNC(=O)CSP(=O)(OC)OC
GROUP: class 0

MOLECULE: ClC1(Cl)C2(Cl)C3(Cl)C4(Cl)C(Cl)(Cl)C5(Cl)C3(Cl)C1(Cl)C5(Cl)C24Cl (stereo not given)
GROUP: class 0

MOLECULE: c1cc[n+]2c(c1)-c1cccc[n+]1CC2
GROUP: class 0

MOLECULE: CCCCC(CC)COC(=O)c1ccccc1C(=O)OCC(CC)CCCC (stereo not given)
GROUP: class 1

MOLECULE: N#Cc1c[nH]cc1-c1cccc2c1OC(F)(F)O2
GROUP: class 0

MOLECULE: CC(C)=CCN1CC[C@@]2(C)c3cc(O)ccc3C[C@@H]1[C@@H]2C
GROUP: class 0

MOLECULE: COP(=S)(OC)Oc1ccc([N+](=O)[O-])c(C)c1
GROUP: class 0

MOLECULE: C=CCBr
GROUP: class 0

MOLECULE: CC(Cc1ccc(O)cc1)NCC(O)c1cc(O)cc(O)c1 (stereo not given)
GROUP: class 0

MOLECULE: N#CCCl
GROUP: class 0

MOLECULE: CCC[CH2][Sn]([CH2]CCC)([O]C(C)=O)[O]C(C)=O
GROUP: class 0

MOLECULE: CC(C)[C@@H](Nc1ccc(C(F)(F)F)cc1Cl)C(=O)OC(C#N)c1cccc(Oc2ccccc2)c1 (stereo not given in full)
GROUP: class 0

MOLECULE: O=[N+]([O-])c1ccc(Cl)c(Cl)c1Cl
GROUP: class 0

MOLECULE: Cc1ccc2cc3c(ccc4ccccc43)c3c2c1CC3
GROUP: class 0

MOLECULE: Oc1cccc(Cl)c1Cl
GROUP: class 0

MOLECULE: COC(=O)C(C)N(C(=O)c1ccco1)c1c(C)cccc1C (stereo not given)
GROUP: class 0

MOLECULE: COC(=O)N(OC)c1ccccc1COc1ccn(-c2ccc(Cl)cc2)n1
GROUP: class 0

MOLECULE: S=C=Nc1ccccc1
GROUP: class 0

MOLECULE: CC(Cc1ccccc1)N(C)Cc1ccco1 (stereo not given)
GROUP: class 0

MOLECULE: Cc1cccc(Cc2cnc[nH]2)c1C
GROUP: class 0

###

assay: A CellTox Green Cytotoxicity Assay to monitor cytotoxicity in HepG2 cells - 32 hour (AID 1224883); settings: CellTox Green fluorescence; series mostly up to 76.8 µM; note: nearly all actives have a fitted effect of over 50% in size
Records with an inconclusive call do not appear. The source made the active and inactive calls. Calls follow the shape of the dose curve; as a rule, active = well fitted activation curve with a large enough effect in the repeat runs; inconclusive = weak or mixed curves; inactive = flat fitted curve, though single readings scatter.
Labels: active, inactive

COMPOUND: NC(=O)C(Cl)Cl
GROUP: inactive

COMPOUND: CC(C)[C@@H](Nc1ccc(C(F)(F)F)cc1Cl)C(=O)OC(C#N)c1cccc(Oc2ccccc2)c1 (stereo partly drawn)
GROUP: inactive

COMPOUND: O=C(NC(=O)c1c(F)cccc1F)Nc1ccc(Oc2ccc(C(F)(F)F)cc2Cl)cc1F
GROUP: inactive

COMPOUND: [Cl][Hg][c]1ccccc1
GROUP: active

COMPOUND: CO/N=C(\C(=O)OC)c1ccccc1CO/N=C(\C)c1cccc(C(F)(F)F)c1
GROUP: inactive

COMPOUND: CN1CCc2cc3c(cc2C1O)OCO3 (stereo not drawn)
GROUP: inactive

COMPOUND: N#Cc1sc2c(=O)c3ccccc3c(=O)c=2sc1C#N
GROUP: active

COMPOUND: BrCCCBr
GROUP: inactive

COMPOUND: CC(=O)[O-].CC(=O)[O-].O.O.O.[Pb+2]
GROUP: inactive

COMPOUND: c1ccc2c(c1)cc1ccc3cccc4ccc2c1c34
GROUP: active

COMPOUND: CN
GROUP: inactive

COMPOUND: CCC[CH2][Sn]([CH2]CCC)([O]C(C)=O)[O]C(C)=O
GROUP: active

COMPOUND: Cc1ccc(C)c2ccccc12
GROUP: inactive

###

experiment: qHTS assay to identify small molecule antagonists of the thyroid receptor (TR) signaling pathway (AID 743065); settings: GH3.TRE-Luc, T3-stimulated luciferase inhibition, 23.5 h; series mostly up to 70.3 µM; note: nearly all actives have a fitted effect of over 55% in size
Records with an inconclusive call do not appear. The source made the active and inactive calls. Calls come from the whole dose curve; as a rule, active = well fitted inhibition curve with a large enough effect in the repeat runs; inconclusive = weak or mixed curves; inactive = no such curve, though single readings can be large or run the other way.
Labels: active, inactive

MOLECULE: N#Cc1c[nH]cc1-c1cccc2c1OC(F)(F)O2
GROUP: active

MOLECULE: CNN
GROUP: inactive

MOLECULE: OCC(Br)CBr (stereo not given)
GROUP: inactive

MOLECULE: CCCCC(CC)COC(=O)OOC(C)(C)C (stereo not given)
GROUP: inactive

MOLECULE: O=[N+]([O-])c1ccc(CCl)cc1
GROUP: inactive

MOLECULE: Nc1ccccc1-c1ccccc1
GROUP: inactive

MOLECULE: Brc1cccc(-c2ccccc2)c1
GROUP: inactive

MOLECULE: CSC(C)(C)/C=N/O
GROUP: inactive

MOLECULE: O=[N+]([O-])c1cc(C(F)(F)F)c(Cl)c([N+](=O)[O-])c1Nc1ncc(C(F)(F)F)cc1Cl
GROUP: active

MOLECULE: N#CCCl
GROUP: inactive

MOLECULE: CC1CN1 (stereo not given)
GROUP: inactive

MOLECULE: Oc1ccc2[nH]cc(CCCCN3CC=C(c4ccccc4)CC3)c2c1
GROUP: active

MOLECULE: c1ccc2nc(N3CCNCC3)ccc2c1
GROUP: active

MOLECULE: CNC(=O)Oc1cc(C)cc(C(C)C)c1
GROUP: inactive

MOLECULE: CC(C)(C)c1ccc(OP(=O)(Oc2ccccc2)Oc2ccccc2)cc1
GROUP: active
